Hey, just so you know, these numbers are from patent US10954221B2.

Quick list: pEC50 per entry.
# measurement_target: UniProt P43220
# procedure_details: GLP1R cAMP assay (HTRF), HEK293/GLP-1R/CRE/Luc, Clone 4
# Sequence (P43220 24-463): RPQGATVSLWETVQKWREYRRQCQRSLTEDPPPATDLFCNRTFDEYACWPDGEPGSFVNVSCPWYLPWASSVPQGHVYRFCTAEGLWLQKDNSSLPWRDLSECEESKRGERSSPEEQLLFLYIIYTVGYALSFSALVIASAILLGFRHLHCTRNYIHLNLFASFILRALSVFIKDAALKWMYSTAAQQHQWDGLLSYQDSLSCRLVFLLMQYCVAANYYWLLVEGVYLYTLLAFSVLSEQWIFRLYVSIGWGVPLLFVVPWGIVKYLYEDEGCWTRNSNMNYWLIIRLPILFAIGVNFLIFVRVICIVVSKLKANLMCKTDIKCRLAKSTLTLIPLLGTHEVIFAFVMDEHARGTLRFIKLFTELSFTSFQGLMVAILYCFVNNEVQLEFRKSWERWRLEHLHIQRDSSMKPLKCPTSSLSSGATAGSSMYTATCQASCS
pEC50: −log10 of the molar value.

molecule | pEC50
O=C(O)c1ccc2nc(Cc3ccc(-c4cccc(OCc5ccc(Cl)cc5F)n4)nc3)n(C[C@@H]3CCO3)c2c1 [Compound 100] | < 6.00
O=C(O)c1ccc2nc(CN3CC=C(c4cccnc4OCc4ccc(Cl)cc4F)CC3)n(C[C@@H]3CCO3)c2c1 [Compound 329] | 6.82 to 7.82
N#Cc1ccc(COc2cccc(N3CCC(=Cc4nc5ccc(C(=O)O)c(F)c5n4C[C@@H]4CCO4)CC3)n2)nc1 [Compound 318] | 6.82 to 7.82
O=C(O)c1ccc2nc(Cn3ccc(-c4cccc(OCc5ccc(Cl)cc5F)n4)cc3=O)n(C[C@@H]3CCO3)c2c1 [Compound 323] | > 7.82
O=C(O)c1ccc2nc(Cc3ccc(-c4cccc(OCc5ccc(-n6ccnc6)cc5)n4)cc3F)n(C[C@@H]3CCO3)c2n1 [Compound 304] | > 7.82
N#Cc1ccc(COc2cccc(C3=CCN(Cc4nc5ccc(B(O)O)cc5n4C[C@@H]4CCO4)CC3)n2)c(F)c1 [Compound 328] | 6.82 to 7.82
O=C(O)c1ccc2nc(Cc3ccc(-c4nc(OCc5ccc(Cl)cc5F)c(F)cc4F)cc3F)n(C[C@@H]3CCO3)c2c1 [Compound 260] | > 7.82

---

# measurement_target: UniProt:P43220
# Parameters: dose or concentration left out as unconfirmed
# details: CHO-K1, […], read-out: β-arrestin recruitment Bmax (%)
Criterion: Emax meeting or surpassing 30%. Met: MET. Not met: NOT MET.

molecule | qualitative_label
N#Cc1ccc(COc2cccc(-c3cc(F)c(Cc4nc5ccc(C(=O)O)nc5n4C[C@@H]4CCO4)cc3F)n2)c(F)c1 [Compound 292] | MET
O=C(O)c1ccc2nc(Cc3cc(F)c(-c4cccc(OCc5ccc(Cl)cc5F)n4)cc3F)n(C[C@@H]3CCO3)c2c1 [Compound 257] | MET
O=C(O)c1ccc2nc(Cc3cc(F)c(-c4cccc(OCc5ccc(-n6ccnc6)cc5)n4)cc3F)n(C[C@@H]3CCO3)c2n1 [Compound 303] | MET
O=C(O)c1ccc2nc(Cc3ccc(-c4cccc(OCc5ccc(Cl)cc5F)c4)cc3F)n(C[C@@H]3CCO3)c2c1 [Compound 89] | NOT MET

---

# measurement_target: GLP1R (Homo sapiens, UniProt P43220)
# procedure_details: cAMP assay in CHO cells stably expressing hGLP-1R
# Format: cell-based
# Parameters: expressed in transfected cells; host or cells: CHO cells stably transfected
# details: CHO cells stably expressing hGLP-1R (Table 2), read-out: CHO cAMP stable EC50
# Protocol: GLP-1R-mediated agonist activity was determined with a cell-based functional assay utilizing an HTRF (Homogeneous Time-Resolved Fluorescence) cAMP detection kit (cAMP Dynamic 2 Assay Kit; CisBio cat #62AM4PEC) that measures cAMP levels in the cell. The method is a competitive immunoassay between native cAMP produced by the cells and exogenous cAMP labeled with the dye d2. The tracer binding is visualized by a mAb anti-cAMP labeled with Cryptate. […]

compound | EC50
N#Cc1ccc(COc2nc(-c3ccc(Cc4nc5ccc(C(=O)O)cc5n4C[C@@H]4CCO4)c(F)c3)ncc2F)c(F)c1 | < 15 nM
O=C(O)c1ccc2nc(Cc3cc(F)c(-c4ncc(F)c(OCc5ccc(Cl)cn5)n4)cc3F)n(C[C@@H]3CCO3)c2n1 | 15 to 150 nM
N#Cc1ccc(COc2cccc(-c3cc(F)c(Cc4nc5ccc(C(=O)O)nc5n4C[C@@H]4CCO4)cc3F)n2)nc1 | < 15 nM
O=C(O)c1ccc2nn(Cc3ccc(-c4cccc(OCc5ccc(Cl)cc5F)n4)cc3F)c(CC3CCO3)c2c1 (stereo not shown) | > 1000 nM
